biological target: Human 5-lipoxygenase (Homo sapiens, UniProt P09917); construct: purchased Cayman 60402; host or cells: insect cells; assay: Activity of compounds against 5-LO enzyme (LTB4 measurement and/or fluorescence method); type: biochemical; conditions: 5-LO, single concentration of 10 uM in duplicate
Sequence (P09917 whole entry): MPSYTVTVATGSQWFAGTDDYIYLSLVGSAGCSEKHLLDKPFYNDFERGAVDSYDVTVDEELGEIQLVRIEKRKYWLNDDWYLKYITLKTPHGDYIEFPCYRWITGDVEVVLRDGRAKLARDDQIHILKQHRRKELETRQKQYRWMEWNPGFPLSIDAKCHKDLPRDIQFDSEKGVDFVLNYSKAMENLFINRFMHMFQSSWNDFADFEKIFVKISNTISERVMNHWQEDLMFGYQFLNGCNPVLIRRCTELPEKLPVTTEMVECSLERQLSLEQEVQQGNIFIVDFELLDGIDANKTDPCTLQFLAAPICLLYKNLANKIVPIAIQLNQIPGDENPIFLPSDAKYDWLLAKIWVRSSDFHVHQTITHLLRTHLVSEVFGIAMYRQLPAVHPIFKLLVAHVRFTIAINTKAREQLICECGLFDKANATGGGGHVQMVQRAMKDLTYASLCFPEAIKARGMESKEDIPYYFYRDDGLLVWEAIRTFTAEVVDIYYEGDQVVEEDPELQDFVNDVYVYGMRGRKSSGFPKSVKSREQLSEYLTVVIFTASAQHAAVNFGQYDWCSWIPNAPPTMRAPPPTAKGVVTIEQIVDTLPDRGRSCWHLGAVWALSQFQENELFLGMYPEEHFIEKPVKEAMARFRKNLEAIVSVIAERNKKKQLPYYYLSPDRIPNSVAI
endpointName: inhibition at 10 µM

Each of the following entries comes with a recorded value; kindly state inhibition at 10 µM for each.
1. CCc1nc2cc(Cl)ccn2c1C(=O)NCc1ccc(Cl)cc1
2. CCc1nc2ccc(Cl)cn2c1C(=O)NCc1ccc(N2CC(C)OC(C)C2)cc1 (stereo not drawn)
3. CCc1nc2cc(Cl)ccn2c1C(=O)NCc1ccc(N2CCC(c3ccccc3)CC2)cc1
4. CCc1nc2ccc(Cl)cn2c1C(=O)N1CCC(OCc2ccc(C(F)(F)F)cc2)CC1

40 to 69%
< 40%
> 69%
< 40%

----------
target: Human 5-lipoxygenase (Homo sapiens, UniProt P09917); construct: purchased Cayman 60402; host or cells: insect cells; test: Activity of compounds against 5-LO enzyme (LTB4 measurement and/or fluorescence method); format: biochemical; settings: 5-LO, single concentration of 10 uM in duplicate
endpointName: inhibition at 10 µM

# example entries with known answers
{"compound": "CCc1nc2ccc(OC)cn2c1C(=O)NCc1ccc(N2CCN(c3ccc(F)cc3)CC2)cc1 [compound 271]", "inhibition at 10 µM": "40 to 69%"}
{"compound": "CCc1nc2ccc(Cl)cn2c1C(=O)NCc1ccc(Nc2ccc(OC(F)(F)F)cc2)cc1 [compound 174]", "inhibition at 10 µM": "> 69%"}
{"compound": "O=C(NCc1ccc(-c2ccccc2)cc1)c1c(C(F)(F)F)nc2ccc(Cl)cn12 [compound 80]", "inhibition at 10 µM": "< 40%"}
{"compound": "Cc1nc2ccccn2c1C(=O)Nc1ccc(Oc2ccccc2)cc1 [compound 13]", "inhibition at 10 µM": "< 40%"}

Each of the following entries comes with a recorded value; kindly state inhibition at 10 µM for each.
1. Cc1nc2c(C)cccn2c1C(=O)NCc1ccccc1 [compound 31]
2. CCCCCNc1ccc(CNC(=O)c2c(CC)nc3cc(Cl)ccn23)cc1 [compound 110]
3. CCc1nc2ccc(Cl)cn2c1C(=O)NCc1nc2ccc(Cl)cc2[nH]1 [compound 365]
4. CCc1nc2cc(Cl)ccn2c1C(=O)NCc1ccc(N2CCC(COc3ccc(F)cc3)CC2)cc1 [compound 245]

1. < 40%
2. > 69%
3. < 40%
4. < 40%

----------
target: Human 5-lipoxygenase (Homo sapiens, UniProt P09917); construct: purchased Cayman 60402; host or cells: insect cells; test: Activity of compounds against 5-LO enzyme (LTB4 measurement and/or fluorescence method); format: biochemical; details: 5-LO, single concentration of 10 uM in duplicate
endpointName: inhibition at 10 µM

Example cases with answers are listed next.
{"smilesRepr": "CCc1nc2ccc(Cl)cn2c1C(=O)NCc1ccc(-c2cccc(C#N)c2)cc1", "inhibition at 10 µM": "< 40%"}
{"smilesRepr": "CCc1nc2ccc(Cl)cn2c1CNCc1ccc(N2CCC3(CC2)OCCO3)cc1", "inhibition at 10 µM": "< 40%"}
{"smilesRepr": "CCc1nc2cc(Cl)ccn2c1C(=O)NCc1ccc(OC(F)(F)F)cc1", "inhibition at 10 µM": "40 to 69%"}

Kindly give each listed record's inhibition at 10 µM.
1. CCc1nc2cc(Cl)ccn2c1C(=O)NCc1ccc(-c2ccc(OC)cn2)cc1
2. CCc1nc2ccc(Cl)cn2c1C(=O)NCc1ccc(N2CCC(C(=O)c3ccc(OC(F)(F)F)cc3)CC2)cc1
3. CCc1nc2cc(Cl)ccn2c1C(=O)NCc1ccc(N2CCN(C)CC2)cc1
4. CCc1nc2cc(Cl)ccn2c1C(=O)NCc1ccc(N2CCN(Cc3ccc(OC(F)(F)F)cc3)CC2)cc1
5. CCc1nc2c(F)cccn2c1C(=O)NCc1ccc(OC(F)(F)F)cc1

["40 to 69%", "> 69%", "< 40%", "> 69%", "< 40%"]
